ASSAY_TARGET: T1, Rb^P R621P (human, UniProt P06400 380-788, R621P)
T1 construct: also called variant 43
T1 sequence (looked up): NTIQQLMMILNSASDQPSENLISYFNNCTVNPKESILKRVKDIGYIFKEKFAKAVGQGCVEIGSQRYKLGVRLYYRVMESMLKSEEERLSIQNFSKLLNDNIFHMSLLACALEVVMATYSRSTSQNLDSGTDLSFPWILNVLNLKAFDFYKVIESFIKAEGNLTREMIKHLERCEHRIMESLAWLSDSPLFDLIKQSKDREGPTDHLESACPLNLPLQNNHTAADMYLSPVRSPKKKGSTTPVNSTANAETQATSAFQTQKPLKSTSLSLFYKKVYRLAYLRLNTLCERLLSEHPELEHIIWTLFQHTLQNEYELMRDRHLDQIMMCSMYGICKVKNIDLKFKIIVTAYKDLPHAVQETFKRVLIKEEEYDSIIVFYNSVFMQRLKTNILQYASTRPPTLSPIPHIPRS
EXPERIMENT: fluorescence polarisation; 37 °C, after the 25 °C reading ramped over 7 min to 37 °C and 2 min incubation; unlabeled Rb^P against 1.5 nM TMR-E2F1^TD or 7.5 nM TMR-E7^LxCxE; 25 mM Tris pH 8.0, 200 mM NaCl, 1 mM DTT, 0.1% Tween-20; apparent Kd
PROTOCOL_CONDITIONS: both partners purified
No end group written: not given here. TMR = tetramethyl rhodamine dye
Below, each entry is listed alongside its reported Kd.
OUTCOME_MEASURE: Kd

* {TMR}-GEGIRDLFDCDFGDLTPLD (also called E2F^TD; source: synthetic peptide, bought: GenScript) [TMR-E2F1^TD, peptide of the E2F1 transactivation domain] | 83 nM
* DLYCYEQLN (also: TMR label, position not given here, source: synthetic peptide, bought: GenScript) [TMR-E7^LxCxE, LxCxE peptide of the E7 oncoprotein from HPV] | 32 nM
